The origin of these recorded values is the supplement of paper PMC10646978.

# Test system: RAW-Dual (murine macrophage reporter line)
# experimentalDetails: IRF reporter (Lucia luciferase) activity fold change vs agonist alone; higher = enhanced IRF activity
# particulars: modulator concentration 10 µM; agonist: LPS 0.1 ug/mL
Item-by-item account of IRF reporter

Here are 3 compounds together with their reported answers.
>  <compound>
CCOC(=O)C1=C(C)NC(C)=C(C(=O)OC)C1c1ccc([N+](=O)[O-])cc1 (stereo unspecified)

>  <experimentalReadout>
IRF reporter

>  <resultValue>
1.01

$$$$
>  <compound>
COc1ccc(OC)c(-c2csc(NC(=O)C3CC3)n2)c1

>  <experimentalReadout>
IRF reporter

>  <resultValue>
1.01

$$$$
>  <compound>
C[C@H](N[C@@H](CCc1ccccc1)C(=O)O)C(=O)N1CCC[C@H]1C(=O)O.O.O

>  <experimentalReadout>
IRF reporter

>  <resultValue>
0.953

$$$$

Challenge: Tell me the measured IRF reporter of CC(C)C(=O)c1c(C(C)C)nn2ccccc12 , please.
Response given: 0.938

Challenge: Request: Cc1ccc(C=Nc2ccc(-c3ccc(N=Cc4ccc(C)o4)c(C)c3)cc2C)o1
Response given: 0.929

Challenge: Request: COc1ccc(Br)cc1C(=O)Nc1cc(C(F)(F)F)cc(C(F)(F)F)c1
Response given: 0.991
